- Measurement description: Pharmacokinetics and absolute bioavailability in plasma after single oral or intravenous administration (Example 1)
- Run parameters: both, domestic short hair (HsdCpb: CADS), plasma, po, 1 mg/kg
Measured parameter: Cmax (ng/mL)
Answers are plain numbers, in ng/mL.

Q: Record request: Cmax value, item CCCc1nc2c(C)cc(-c3nc4ccccc4n3C)cc2n1Cc1ccc(-c2ccccc2C(=O)O)cc1 [telmisartan]
Result: 138

----------
- Measurement description: Pharmacokinetics and absolute bioavailability in plasma after single oral or intravenous administration (Example 1)
- Run parameters: domestic short hair (HsdCpb: CADS), plasma, po, 1 mg/kg, bioavailability, individual data, animal no. 101, for AUC 0→∞
- Method: Four clinically healthy male and female domestic short hair cats (HsdCpb: CADS) with a body weight range of 2.6-4.2 kg were used in this study. The animals were randomly allocated to 2 groups, 2 animals per group. Blood samples were drawn at 0 h (i.e. prior to treatment), 5 (after i. v. injection only), 15, 30 and 60 min as well as 2, 4, 8, 24, 72 and 96 h after each treatment. […] Plasma samples were sent to the analytical laboratory and analysed there using a validated method. […]
Measured parameter: bioavailability (%)
Answers are plain numbers, in %.

Q: Record request: bioavailability value, item `CCCc1nc2c(C)cc(-c3nc4ccccc4n3C)cc2n1Cc1ccc(-c2ccccc2C(=O)O)cc1`
Result: 11.6
